Data provenance is patent US6706664B1.

tested on: livid amaranth; experiment: Foliar spread test for upland field; type: in vivo, Amaranthus lividus; design: key: 0: normal development; 1: Less damaged; 2: Slightly damaged; 3: Moderately damaged; 4: Severely damaged; 5: All killed; details: foliar spray 500 ppm, 3 weeks, rank vs non-treated
Readout label: Effects Livid amaranth
Give the figure only, with no unit attached.

Here is how some molecules turned out for Effects Livid amaranth.
Which Effects Livid amaranth value belongs to CCCC(Oc1ccc(F)c(C(F)(F)F)c1)c1nc2cc(C#N)c(Cl)cc2o1 (stereo not drawn) ?
5

Which Effects Livid amaranth value belongs to CCCC(Oc1ccc(F)c(C(F)(F)F)c1)c1nc2cc(C(F)(F)F)ccc2o1 (stereo not drawn) ?
4

Which Effects Livid amaranth value belongs to CCCC(Oc1cccc(C(F)(F)F)c1)c1nc2cc(C(F)(F)F)ccc2o1 (stereo not drawn) ?
4

Which Effects Livid amaranth value belongs to CCC(Oc1ccc(F)c(C(F)(F)F)c1)c1nc2cc(F)c(F)cc2o1 (stereo not drawn) ?
5

Which Effects Livid amaranth value belongs to CCCC(Oc1cccc(C(F)(F)F)c1)c1nc2cc(C#N)c(Cl)cc2o1 (stereo not drawn) ?
5

Lab note: next molecule to report on.
Which Effects Livid amaranth value belongs to CCC(Oc1ccc(F)c(C(F)(F)F)c1)c1nc2ccc(C(F)(F)F)cc2o1 (stereo not drawn) ?
4

---

system: bulrush; experiment: Herbicidal test for paddy field; assay type: in vivo, Scrips juncoides; design: key: 0: normal development; 1: Less damaged; 2: Slightly damaged; 3: Moderately damaged; 4: Severely damaged; 5: All killed; details: paddy field pot, 500 g/ha dropwise at 1.5 leaf stage of barnyardgrass, 3 weeks, rank vs non-treated
Reported values of Effect Bulrush for individual entries
Give the figure only, with no unit attached.

Which Effect Bulrush value belongs to CCCC(Oc1ccc(F)c(C(F)(F)F)c1)c1nc2cc(C#N)c(F)cc2o1 (centres unmarked) [Compound 348] ?
4

Which Effect Bulrush value belongs to CCC(Oc1ccc(F)c(C(F)(F)F)c1)c1nc2ccc(Cl)cc2o1 (centres unmarked) [Compound 9] ?
3

---

tested on: Large crabgrass; test: Soil treatment test for upland field; format: in vivo, Digitaria adscendens; parameters: key: 0: normal development; 1: Less damaged; 2: Slightly damaged; 3: Moderately damaged; 4: Severely damaged; 5: All killed; settings: 500 g/ha, glass house 25° C., 3 weeks
Readout label: Effects Large crabgrass
Give the figure only, with no unit attached.

Here is how some compounds turned out for Effects Large crabgrass.
Which Effects Large crabgrass value belongs to CCC(Oc1cccc(OC(F)(F)F)c1)c1nc2cc(C#N)c(C#N)cc2o1 (stereo not drawn) [Compound 527] ?
5

Which Effects Large crabgrass value belongs to CCC(Oc1ccc(F)c(C(F)(F)F)c1)c1nc2cc(F)c(F)cc2o1 (stereo not drawn) [Compound 284] ?
5

---
Which Effects Large crabgrass value belongs to CCC(Oc1cccc(C(F)(F)F)c1)c1nc2cc(F)c(C(F)(F)F)cc2o1 (stereo not drawn) [Compound 471] ?
5

---

tested on: corn; test: Foliar spread test for upland field; format: in vivo; set-up: key: 0: normal development; 1: Less damaged; 2: Slightly damaged; 3: Moderately damaged; 4: Severely damaged; 5: All killed; settings: foliar spray 500 ppm, 3 weeks, rank vs non-treated
Reported values of Effects Corn for individual entries
Give the figure only, with no unit attached.

Which Effects Corn value belongs to CCCC(Oc1ccc(F)c(C(F)(F)F)c1)c1nc2ccc(C(F)(F)F)cc2o1 (stereo not shown) [Compound 101] ?
1

---
Which Effects Corn value belongs to CCCC(Oc1cccc(C(F)(F)F)c1)c1nc2cc(F)c(C(F)(F)F)cc2o1 (stereo not shown) [Compound 474] ?
2

Which Effects Corn value belongs to CCCC(Oc1ccc(F)c(C(F)(F)F)c1)c1nc2cc(Cl)ccc2o1 (stereo not shown) [Compound 141] ?
2

Which Effects Corn value belongs to CCCC(Oc1cccc(C(F)(F)F)c1)c1nc2cc(F)c(Cl)cc2o1 (stereo not shown) [Compound 497] ?
2

---

test system: velvetleaf; assay: Foliar spread test for upland field; assay type: in vivo, Abutilon theophrasti; set-up: key: 0: normal development; 1: Less damaged; 2: Slightly damaged; 3: Moderately damaged; 4: Severely damaged; 5: All killed; conditions: foliar spray 500 ppm, 3 weeks, rank vs non-treated
Readout label: Effects Velvetleaf
Give the figure only, with no unit attached.

Here is how some compounds turned out for Effects Velvetleaf.
Which Effects Velvetleaf value belongs to CCCC(Oc1cccc(C(F)(F)F)c1)c1nc2cc(C#N)ccc2o1 (stereo not drawn) ?
3

Which Effects Velvetleaf value belongs to CCCC(Oc1ccc(F)c(C(F)(F)F)c1)c1nc2ccc(C(F)(F)F)cc2o1 (stereo not drawn) ?
3

Lab note: next compound to report on.
Which Effects Velvetleaf value belongs to CCC(Oc1cccc(C(F)(F)F)c1)c1nc2cc(C#N)c(C#N)cc2o1 (stereo not drawn) ?
4

---

Reported values of Effects Corn for individual entries
system: corn; experiment: Soil treatment test for upland field; type: in vivo; set-up: key: 0: normal development; 1: Less damaged; 2: Slightly damaged; 3: Moderately damaged; 4: Severely damaged; 5: All killed; settings: 500 g/ha, glass house 25° C., 3 weeks
Give the figure only, with no unit attached.

Which Effects Corn value belongs to CCCC(Oc1cccc(C(F)(F)F)c1)c1nc2cc(S(C)(=O)=O)c(C)cc2o1 (stereo not drawn) [Compound 489] ?
1

Which Effects Corn value belongs to CCC(Oc1ccc(Cl)c(C#N)c1)c1nc2cc(S(C)(=O)=O)ccc2o1 (stereo not drawn) [Compound 509] ?
0

Which Effects Corn value belongs to CCCC(Oc1cccc(C(F)(F)F)c1)c1nc2cc(C#N)ccc2o1 (stereo not drawn) [Compound 192] ?
2

---

tested on: bulrush; experiment: Herbicidal test for paddy field; type: in vivo, Scrips juncoides; set-up: key: 0: normal development; 1: Less damaged; 2: Slightly damaged; 3: Moderately damaged; 4: Severely damaged; 5: All killed; settings: paddy field pot, 500 g/ha dropwise at 1.5 leaf stage of barnyardgrass, 3 weeks, rank vs non-treated
Readout label: Effect Bulrush
Give the figure only, with no unit attached.

Here is how some compounds turned out for Effect Bulrush.
Which Effect Bulrush value belongs to CCC(Oc1cccc(OC(F)(F)F)c1)c1nc2cc([N+](=O)[O-])ccc2o1 (stereo not shown) [Compound 450] ?
4

Which Effect Bulrush value belongs to CCC(Oc1cccc(C#N)c1)c1nc2cc(S(C)(=O)=O)c(C)cc2o1 (stereo not shown) [Compound 491] ?
3

Which Effect Bulrush value belongs to CCC(Oc1ccc(F)c(C(F)(F)F)c1)c1nc2cc(Cl)c(C)cc2o1 (stereo not shown) [Compound 340] ?
4

---
Which Effect Bulrush value belongs to CCC(Oc1ccc(F)c(C(F)(F)F)c1)c1nc2cc(C#N)c(C#N)cc2o1 (stereo not shown) [Compound 316] ?
3

---

system: solgum; test: Foliar spread test for upland field; format: in vivo; design: key: 0: normal development; 1: Less damaged; 2: Slightly damaged; 3: Moderately damaged; 4: Severely damaged; 5: All killed; conditions: foliar spray 500 ppm, 3 weeks, rank vs non-treated
Reported values of Effects Solgum for individual entries
Give the figure only, with no unit attached.

Here is how some compounds turned out for Effects Solgum.
For solgum, provide Effects Solgum of CCC(Oc1ccc(F)c(C(F)(F)F)c1)c1nc2cc(NC(=O)C(F)(F)F)ccc2o1 (stereo not drawn) please.
0

For solgum, provide Effects Solgum of CCC(Oc1ccc(F)c(C(F)(F)F)c1)c1nc2cc(OC)ccc2o1 (stereo not drawn) please.
2

For solgum, provide Effects Solgum of CCC(Oc1cccc(OC(F)(F)F)c1)c1nc2cc([N+](=O)[O-])ccc2o1 (stereo not drawn) please.
3

For solgum, provide Effects Solgum of CCC(Oc1cccc(C(F)(F)F)c1)c1nc2cc([N+](=O)[O-])ccc2o1 (stereo not drawn) please.
2

For solgum, provide Effects Solgum of CCC(Oc1ccc(F)c(C(F)(F)F)c1)c1nc2cc(C#N)c(C#N)cc2o1 (stereo not drawn) please.
1

---
For solgum, provide Effects Solgum of CCC(Oc1cccc(C(F)(F)F)c1)c1nc2cc(S(C)(=O)=O)c(C)cc2o1 (stereo not drawn) please.
1

For solgum, provide Effects Solgum of CCC(Oc1ccc(F)c(C(F)(F)F)c1)c1nc2cc(Cl)ccc2o1 (stereo not drawn) please.
2

For solgum, provide Effects Solgum of CCC(Oc1ccc(F)c(C(F)(F)F)c1)c1nc2cc(F)c(F)cc2o1 (stereo not drawn) please.
3

For solgum, provide Effects Solgum of CCC(Oc1ccc(F)c(C(F)(F)F)c1)c1nc2cc(F)c(Cl)cc2o1 (stereo not drawn) please.
1

For solgum, provide Effects Solgum of CCC(Oc1ccc(F)c(C(F)(F)F)c1)c1nc2cc(Cl)c(C)cc2o1 (stereo not drawn) please.
2

For solgum, provide Effects Solgum of CCCC(Oc1cccc(C(F)(F)F)c1)c1nc2cc(C#N)c(Cl)cc2o1 (stereo not drawn) please.
2

For solgum, provide Effects Solgum of CCC(Oc1ccc(Cl)c(C(F)(F)F)c1)c1nc2cc(F)ccc2o1 (stereo not drawn) please.
2

For solgum, provide Effects Solgum of CCC(Oc1ccc(F)c(C(F)(F)F)c1)c1nc2cc(Br)ccc2o1 (stereo not drawn) please.
2
